Source listed as patent US12077503B2.

- Tested on: corn (Zea mays)
- Test description: Test G Post-Emergence Protocol
- Format: in vivo
- Particulars: Zea mays, post-emergence, 312 h, 62.5 g ai/ha, evaluated after 13 days, read-out: Corn damage rating (100=total damage to plant; 0=no damage to plant)
Measured property: plant injury at 62.5 g/ha

Entry C=CCc1c(Cl)cccc1NC(=O)[C@H]1C(=O)N(C)C[C@H]1c1ccc(C(F)(F)F)cc1 (racemic) : reported plant injury at 62.5 g/ha = ? 10%

Entry Cc1nnc(NC(=O)[C@@H]2C(=O)N(C)C[C@H]2c2ccc(C(F)(F)F)cc2)s1 (racemic) : reported plant injury at 62.5 g/ha = ? 0%

Entry CN1C[C@@H](c2ccc(C(F)(F)F)cc2)[C@H](C(=O)Nc2ccccn2)C1=O (racemic) : reported plant injury at 62.5 g/ha = ? 0%

Entry CN1C[C@H](c2ccc(C(F)(F)F)cc2)[C@@H](C(=O)Nc2ccc(F)c(C(F)(F)F)c2)C1=O (racemic) : reported plant injury at 62.5 g/ha = ? 0%

###

Hi there, I'd appreciate the recorded Plant response rating, Ryegrass, Italian for every entry that follows.
- Test system: ryegrass, Italian (Italian ryegrass, Lolium multiflorum)
- Test description: Test C preemergence
- Type: in vivo
- Particulars: 125 g ai/ha, scale 0 to 100, 0 no effect, 100 complete control
- Text: […]
Give the figure only, with no unit attached.

Entry CN1CC(c2cccc(OC(F)F)c2)C(C(=O)Nc2cccc(F)c2F)C1=O (centres unmarked) : reported Plant response rating, Ryegrass, Italian = ? 90

Entry CN1C[C@H](c2ccc(F)c(F)c2)[C@@H](C(=O)Nc2ccccc2F)C1=O : reported Plant response rating, Ryegrass, Italian = ? 30

Entry CN1CC(c2cc(F)cc(F)c2)C(C(=O)Nc2ccc(F)c(F)c2F)C1=O (centres unmarked) : reported Plant response rating, Ryegrass, Italian = ? 80

Entry O=C1NCC(c2cc(F)cc(C(F)(F)F)c2)C1C(=O)Nc1cccc(F)c1F (centres unmarked) : reported Plant response rating, Ryegrass, Italian = ? 70

Entry CN1CC(c2cccc(OC(F)(F)C(F)F)c2)C(C(=O)Nc2ccc(F)c(F)c2F)C1=O (centres unmarked) : reported Plant response rating, Ryegrass, Italian = ? 85

###

- Tested on: barnyardgrass (Echinochloa crus-galli)
- Test description: Test A preemergence
- Format: in vivo
- Particulars: Echinochloa crus-galli, pre-emergence, 240 h, 125 g ai/ha, Preemergence, visual injury rating after approximately 10 d; read-out: Barnyardgrass plant response rating (0 to 100 scale, 0 is no effect, 100 is complete control)
Measured property: pest or weed control at 125 g/ha
Put your answer as a value accompanied by its unit after it.

Entry CC(C)=CC1CNC(=O)C1C(=O)Nc1ccccc1F (centres unmarked) : reported pest or weed control at 125 g/ha = ? 0%

Entry CSc1ccccc1NC(=O)C1C(=O)NCC1C=C(C)C (centres unmarked) : reported pest or weed control at 125 g/ha = ? 0%

Entry Cc1ccc([C@H]2CN(C)C(=O)[C@@H]2C(=O)Nc2ccccc2S(C)(=O)=O)cc1Cl : reported pest or weed control at 125 g/ha = ? 90%

Entry CN1CC(c2ccccc2OC(F)(F)C(F)F)C(C(=O)Nc2cccc(F)c2F)C1=O (centres unmarked) : reported pest or weed control at 125 g/ha = ? 90%

Entry O=C(Nc1ccccc1F)[C@H]1C(=S)NC[C@@H]1c1ccc(C(F)(F)F)cc1 (racemic) : reported pest or weed control at 125 g/ha = ? 30%
